UniProt Q72874: recorded IC50 for assorted compounds
Write the value in µM as a bare number.

Some entries whose results are on file:
COc1ccc(S(=O)(=O)N(CC(C)C)C[C@@H](O)[C@H](Cc2ccccc2)NC(=O)O[C@H]2CCNC2)cn1; 4.04
CC(C)CN(C[C@@H](O)[C@H](Cc1ccccc1)NC(=O)[C@H]1CCCN1)S(=O)(=O)c1ccc(O)cc1; 96.9
CC(C)CN(C[C@@H](O)[C@H](Cc1ccccc1)NC(=O)N[C@H]1CCNC1)S(=O)(=O)c1ccc(O)cc1; 1.95
COc1ccc(S(=O)(=O)N(CC(C)C)C[C@@H](O)[C@H](Cc2ccccc2)NC(=O)[C@H]2CCNC2)cn1; 4.74
COc1ccc(S(=O)(=O)N(CC(C)C)C[C@@H](O)[C@H](Cc2ccccc2)NC(=O)[C@@H]2CCCN2)cc1; 2.19

Entry COc1ccc(S(=O)(=O)N(CC(C)C)C[C@@H](O)[C@H](Cc2ccccc2)NC(=O)O[C@@H]2CCNC2)cc1 has what IC50?
2.58

Try CC(C)CN(C[C@@H](O)[C@H](Cc1ccccc1)NC(=O)[C@H]1CCNC1)S(=O)(=O)c1ccc(N)cc1 next.
12.5

Try CC(C)CN(C[C@@H](O)[C@H](Cc1ccccc1)NC(=O)C[C@@H]1CCNC1)S(=O)(=O)c1ccc(O)cc1 next.
5.01
